Known z-score of a selection of compounds
- Assay details: changes in parasitized red cell lysis, either direction – P. falciparum Indochina, OD700, 3 h, PSAC antagonist project, primary screen (AID 1156)
- Measurement conditions: P. falciparum-infected erythrocytes, osmotic lysis, higher = more signal, called active from +8 up or from −8 down

# Compound, z-score
records = [
    ("C=C(/C(=C/C[C@H](OC(C)=O)c1ccc(CO)o1)c1cnc2ccccc2c1)C(C)C", 0.589),
    ("CCCCC(O)C1C=CC2C(=O)N(C)C(=O)C2N1N(c1ccccc1)c1ccccc1 (stereo unspecified)", 1.3),
    ("CC(C)c1ccc(NN2C(C(O)c3ccc(C#N)cc3)C=CC3C(=O)N(c4ccccc4)C(=O)C32)cc1 (stereo unspecified)", 0.567),
    ("COc1cc(C(O)C2C=CC3C(=O)N(C)C(=O)C3N2Nc2ccccc2)cc(OC)c1OC (stereo unspecified)", 0.508),
    ("COC(=O)[C@@]1(Cc2ccc(OC)cc2)[C@H]2c3cc(C(=O)N(C)C)n(Cc4ccc(OC(F)(F)F)cc4)c3C[C@H]2CN1C(=O)c1ccccc1", 0.219),
    ("[N-]=[N+]=Nc1ccccc1[C@@H]1OC(c2ccc(OCCCO)cc2)=N[C@]1(Cc1ccccc1)C(=O)O", 3.46),
    ("O=C1O[C@H](c2ccccc2)[C@H](c2ccccc2)N2[C@H]1[C@@H](C(=O)O)[C@]1(C(=O)Nc3ccc(C#CCCO)cc31)[C@H]2c1ccccc1OCCO", -1.27),
    ("COC(=O)[C@@]1(Cc2ccccc2)[C@H]2c3cc(C(=O)N(C)C)n(Cc4ccc(C)o4)c3C[C@H]2CN1C(=O)c1ccccc1", 0.541),
    ("Cc1ccc(S[C@]2(C(=O)NCCN3CCOCC3)CC(=O)N(Cc3ccccc3Cl)[C@@H]2c2ccc(CO)cc2I)cc1", 0.676),
    ("COc1ccc([Si](C)(C)[C@H]2[C@H](CC(=O)N(CCO)Cc3ccccc3)O[C@@]3(C(=O)N(C)c4c(Br)cc(C)cc43)[C@@H]2C)cc1", 0.0319),
    ("[N-]=[N+]=Nc1ccccc1[C@@H]1OC(c2ccc(OCCCO)cc2)=N[C@]1(Cc1ccccc1)C(=O)N1CCCCC1", 3.01),
    ("NC(=O)[C@@]1(Cc2ccccc2)COC(c2ccc(OCCCO)cc2)=N1", 0.121),
    ("CCOC(=O)C[C@H]1[C@H](OC(=O)c2cc3ccccc3oc2=O)[C@@H](NC(=O)c2ccc3ccccc3n2)c2cc(OCCCO)ccc2N1C(=O)Cc1ccc(OC)cc1", 0.635),
    ("CCCCCCCCCC(O)C1C=CC2C(=O)N(c3ccccc3)C(=O)C2N1Nc1cc(OC)c(OC)c(OC)c1 (stereo unspecified)", -0.372),
    ("C=CCC(OC(C)=O)[C@@H]1[C@@H](N(Cc2cccc3ccccc23)C(=O)Cc2ccc(OC)cc2)c2cc(OCCCO)ccc2N1C(=O)c1ccc(-c2ccccc2)cc1 (stereo partly specified)", -0.278),
    ("CCCCC[C@H]1OC[C@@]23C=C(Br)[C@@H](CC12)[C@@]1(CO1)C3=O (stereo partly specified)", 0.487),
    ("CCOC(=O)C[C@H]1[C@H](OC(=O)c2ccc(C(=O)c3ccccc3)cc2)[C@@H](NC(=O)C2CCCCC2)c2cc(OCCCO)ccc2N1C(=O)c1ccc2ccccc2n1", -0.238),
    ("CN1C(=O)C2C=CC(C(O)c3cccn3C)N(Nc3ccc([N+](=O)[O-])cc3[N+](=O)[O-])C2C1=O (stereo unspecified)", -0.0499),
    ("COc1cc2c(cc1O)C(c1ccc(CN3CCCC3)cc1)N(Cc1cc3c(cc1Br)OCO3)CC2 (stereo unspecified)", 0.782),
    ("COc1cc(OC)c(C(O)C2C=CC3C(=O)N(Cc4ccccc4)C(=O)C3N2n2cnnc2)cc1Br (stereo unspecified)", 1.34),
    ("C=C[C@H]1C(C(=O)OCC)=CC[C@@H](c2ccccc2)N1S(=O)(=O)c1ccc(C)cc1", 0.43),
    ("Cc1ccc(S[C@]2(C(=O)NCC(F)(F)F)CC(=O)N(Cc3cc(C(F)(F)F)cc(C(F)(F)F)c3)[C@@H]2c2ccc(CO)cc2)cc1", -0.573),
    ("COC(=O)C1=CC(CCCO)=CC(c2cccs2)N(Cc2cccc(OC(F)(F)F)c2)C=C1C(=O)OC (stereo unspecified)", 0.87),
    ("CCOc1cc(C(O)C2C=CC3C(=O)NC(=O)C3N2Nc2ccc(Cl)cc2Cl)ccc1O (stereo unspecified)", 0.0675),
    ("CCOC(=O)C[C@H]1[C@H](OC(=O)c2ccc(C(=O)c3ccccc3)cc2)[C@@H](NC(=O)c2ccc3ccccc3n2)c2cc(OCCCO)ccc2N1C(=O)Cc1ccc(OC)cc1", 1.57),
    ("CC(C)C[C@@H]1NC(=O)[C@@H]2C[C@H](C(=O)NCCCCCCN)[C@H](c3cccc(OCCO)c3)N2C1=O", 3.36),
    ("COC(=O)C1=CC(CCCO)=CC(c2cccs2)N(C)C=C1C(=O)OC (stereo unspecified)", 0.148),
    ("CC#CCO[Si](C#Cc1ccccc1)(C(C)C)C(C)C", -0.975),
    ("COc1ccc([Si](C)(C)[C@@H]2[C@@H](CCO)O[C@]3(C(=O)N(Cc4cccc(NC(=O)[C@H](C)O)c4)c4ccccc43)[C@H]2C)cc1", -1.04),
    ("COCC(=C=CC[C@H](O)c1ccc(OCCO)cc1)CCO", 0.934),
    ("CCC1=C2CN(Cc3ccccc3)[C@@H](C(=O)Cc3ccccc3)C2C=CCC1 (stereo partly specified)", 0.564),
]
